Target: HCV RdRp (NS5B RNA-dependent RNA polymerase) (Hepatitis C virus genotype 1b, UniProt P26663)
Construct: The HCV NS5B protein is the viral RdRp; made in house; host or cells: insect cells infected with recombinant baculovirus
Sequence (P26663 2420-3010): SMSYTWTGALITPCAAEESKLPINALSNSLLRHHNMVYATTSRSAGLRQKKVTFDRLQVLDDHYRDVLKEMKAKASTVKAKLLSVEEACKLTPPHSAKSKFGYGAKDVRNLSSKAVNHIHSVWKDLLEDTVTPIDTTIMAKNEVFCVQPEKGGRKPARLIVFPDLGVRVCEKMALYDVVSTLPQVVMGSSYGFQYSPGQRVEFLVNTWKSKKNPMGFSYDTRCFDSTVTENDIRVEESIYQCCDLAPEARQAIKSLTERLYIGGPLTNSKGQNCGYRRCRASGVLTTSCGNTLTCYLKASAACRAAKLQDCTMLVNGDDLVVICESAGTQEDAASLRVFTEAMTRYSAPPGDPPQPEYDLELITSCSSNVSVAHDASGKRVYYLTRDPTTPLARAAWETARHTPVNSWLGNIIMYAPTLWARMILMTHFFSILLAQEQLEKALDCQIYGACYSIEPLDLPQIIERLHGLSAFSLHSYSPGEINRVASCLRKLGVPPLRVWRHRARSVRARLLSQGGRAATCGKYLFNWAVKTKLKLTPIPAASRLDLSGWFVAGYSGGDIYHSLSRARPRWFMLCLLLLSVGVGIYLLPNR
Test: Inhibition of hepatitis C virus RdRp (poly(A)/oligo(U), [3H]UTP incorporation)
Assay type: biochemical
pIC50: −log10 of the molar value.

>  <molecule>
O=C(O)C(=O)CC(=O)c1ccco1 [Example 216]

>  <pIC50>
4.30

$$$$

----------
Biological target: HCV RdRp (NS5B RNA-dependent RNA polymerase) (Hepatitis C virus genotype 1b, UniProt P26663)
Construct: The HCV NS5B protein is the viral RdRp; made in house; host or cells: insect cells infected with recombinant baculovirus
Assay: Inhibition of hepatitis C virus RdRp (poly(A)/oligo(U), [3H]UTP incorporation)
Assay type: biochemical
Conditions: Tables IXa-IXc; unit inferred; read-out: HCV (IC50)
Listed here are molecules together with their documented IC50.

>  <compound_structure>
O=C(O)C(O)=CC(=O)c1ccc(-c2cc(Cl)cc(Cl)c2)o1

>  <cmp>
>

>  <IC50, µM>
100

$$$$
>  <compound_structure>
O=C(O)C(O)=CC(=O)C12CC3CC(CC(C3)C1)C2

>  <cmp>
=

>  <IC50, µM>
6.7

$$$$
>  <compound_structure>
O=C(Nc1ccccc1)Nc1cccc(C(=O)C=C(O)C(=O)O)c1

>  <cmp>
=

>  <IC50, µM>
3

$$$$
>  <compound_structure>
O=C(O)C(O)=CC(=O)c1cccc(Cc2cc(Br)cc(Br)c2)c1

>  <cmp>
=

>  <IC50, µM>
32

$$$$
>  <compound_structure>
O=C(O)C(O)=CC(=O)c1cccc(NS(=O)(=O)c2cc(Cl)ccc2Cl)c1

>  <cmp>
=

>  <IC50, µM>
0.7

$$$$
>  <compound_structure>
O=C(O)C(O)=CC(=O)c1cccc(NS(=O)(=O)c2cc(Cl)cc(Cl)c2)c1

>  <cmp>
=

>  <IC50, µM>
0.14

$$$$
>  <compound_structure>
Cc1cc(C)c(C(=O)C=C(O)C(=O)O)s1

>  <cmp>
=

>  <IC50, µM>
8.2

$$$$
>  <compound_structure>
N#CCCCOc1ccc(O)cc1C(=O)C=C(O)C(=O)O

>  <cmp>
=

>  <IC50, µM>
0.115

$$$$
>  <compound_structure>
N#Cc1ccccc1COc1cccc(C(=O)C=C(O)C(=O)O)c1

>  <cmp>
=

>  <IC50, µM>
0.23

$$$$
>  <compound_structure>
O=C(O)C(O)=CC(=O)c1ccc(O)cc1

>  <cmp>
=

>  <IC50, µM>
5.5

$$$$
>  <compound_structure>
O=C(O)C(O)=CC(=O)c1cccc(NC(=O)c2ccccc2)c1

>  <cmp>
=

>  <IC50, µM>
11

$$$$
>  <compound_structure>
Cc1ccc(OCCCC#N)c(C(=O)C=C(O)C(=O)O)c1

>  <cmp>
=

>  <IC50, µM>
1

$$$$
>  <compound_structure>
N#Cc1c(Cl)cccc1COc1cccc(C(=O)C=C(O)C(=O)O)c1

>  <cmp>
=

>  <IC50, µM>
0.17

$$$$
>  <compound_structure>
O=C(O)C(O)=CC(=O)c1cccc(O)c1

>  <cmp>
=

>  <IC50, µM>
1

$$$$
>  <compound_structure>
N#Cc1ccccc1S(=O)(=O)Nc1cccc(C(=O)C=C(O)C(=O)O)c1

>  <cmp>
=

>  <IC50, µM>
0.48

$$$$
>  <compound_structure>
O=C(O)C(O)=CC(=O)c1cccn1Cc1ccc(O)cc1

>  <cmp>
=

>  <IC50, µM>
12.8

$$$$
>  <compound_structure>
O=C(O)C(O)=CC(=O)c1cc(I)cn1Cc1ccc(F)cc1

>  <cmp>
=

>  <IC50, µM>
18

$$$$
>  <compound_structure>
O=C(O)C(=O)Nc1cccc(C(=O)C=C(O)C(=O)O)c1

>  <cmp>
=

>  <IC50, µM>
19

$$$$
>  <compound_structure>
N#Cc1cccc(Cl)c1COc1cccc(C(=O)C=C(O)C(=O)O)c1

>  <cmp>
=

>  <IC50, µM>
0.14

$$$$
>  <compound_structure>
O=C(O)C(O)=CC(=O)c1cccc(OCc2c(F)cccc2F)c1

>  <cmp>
=

>  <IC50, µM>
3.3

$$$$
